Hi there, I'd appreciate the recorded Plant response rating, Barnyardgrass for every entry that follows.
test system: barnyardgrass (Echinochloa crus-galli); test: Test B postemergence; assay type: in vivo; settings: Rate 500 g/ha, scale 0 to 100, 0 is no effect, 100 is complete control, 13 to 15 days
Give bare numbers.

| compound | Plant response rating, Barnyardgrass |
| --- | --- |
| Cc1cn(C2CCN(c3cccc(C(F)(F)F)c3)C2=O)nc1C(C)C (stereo not drawn) | 0 |
| O=C1C(n2cc(Cl)c(C3CC3)n2)CCN1c1cccc(C(F)(F)F)c1 (stereo not drawn) | 0 |
| CCC(C)c1ccn(C2SCN(c3cccc(OC(F)(F)F)c3)C2=O)n1 (stereo not drawn) | 90 |
| O=C1C(n2ccc(C3CC3)n2)OCN1c1cccc(C(F)(F)F)c1 (stereo not drawn) | 60 |

Below are 2 compounds. Give each one its Plant response rating, Barnyardgrass.
1. CC(C)(C)c1ccn(C2OCN(c3cccc(OC(F)(F)F)c3)C2=O)n1 (stereo not drawn)
2. CCCOc1cc(N2CCC(n3ccc(C(C)(C)C)n3)C2=O)ccc1C (stereo not drawn)

1: 100; 2: 0

Batch request: Plant response rating, Barnyardgrass per item, same order as input.
1. COc1ccn(C2CCN(c3cccc(C(F)(F)F)c3)C2=O)n1 (stereo not drawn)
2. Cc1ccc(N2CCC(n3ccc(C(C)(C)C)n3)C2=O)cc1Br (stereo not drawn)
3. CC(C)OC(=O)c1cccc(N2CCC(n3ccc(C(C)(C)C)n3)C2=O)c1 (stereo not drawn)

0
40
0

# per-item lookup of Plant response rating, Barnyardgrass; items listed below
1. O=C1C(n2ccc(C3CCCCC3)n2)SCN1c1cccc(C(F)(F)F)c1 (stereo not drawn)
2. CCC(CC)c1ccn(C2CCN(c3cccc(OC)c3)C2=O)n1 (stereo not drawn)

0
90

// for each compound in input: emit Plant response rating, Barnyardgrass
1. Cc1ccc(N2CCC(n3ccc(C(C)(C)C)n3)C2=O)cc1OCCI (stereo not drawn)
2. COc1cc(N2CCC(n3ccc(C(C)(C)C)n3)C2=O)ccc1Cl (stereo not drawn)
3. Cc1ccc(N2CCC(n3ccc(C(C)(C)C)n3)C2=O)cc1OC(C)C (stereo not drawn)
4. CC(C)(C)c1ccn(C2CCN(c3cccc([S+]([O-])C(F)(F)F)c3)C2=O)n1 (stereo not drawn)
5. CCC(C)Oc1cccc(N2CCC(n3ccc(C(C)(C)C)n3)C2=O)c1 (stereo not drawn)
6. CC1(c2ccn(C3OCN(c4cccc(C(F)(F)F)c4)C3=O)n2)CC1 (stereo not drawn)

1: 0; 2: 90; 3: 0; 4: 0; 5: 0; 6: 0

Can you look up the measured Plant response rating, Barnyardgrass of CCCC(C)c1ccn(C2CCN(c3cccc(C(F)(F)F)c3)C2=O)n1 (stereo not drawn) for me?
0

---

Hi there, I'd appreciate the recorded Plant response rating (0 to 100), Ragweed, Common for every entry that follows.
tested on: common ragweed (Ambrosia elatior); test: Test C preemergence; format: in vivo; conditions: preemergence, Rate 500 g/ha, visual evaluation after 12 to 14 days
Numbers only.

Check out these entries, answers already filled in.
| compound | tested target | value measured |
| --- | --- | --- |
| CC(C)(C)c1ccn(C2OCN(c3cccc(OC(F)F)c3)C2=O)n1 (stereo not drawn) | common ragweed (Ambrosia elatior) | 0 |
| CCCC(C)c1ccn(C2CCN(c3cccc(C(F)(F)F)c3)C2=O)n1 (stereo not drawn) | common ragweed (Ambrosia elatior) | 0 |
| CCC(C)c1ccn(C2CCN(c3cccc(OC)c3)C2=O)n1 (stereo not drawn) | common ragweed (Ambrosia elatior) | 10 |
| CCC(CC)c1ccn(C2CCN(c3cccc(OC(C)C)c3)C2=O)n1 (stereo not drawn) | common ragweed (Ambrosia elatior) | 0 |
| CCC(CC)c1ccn(C2OCN(c3cccc(OC(F)F)c3)C2=O)n1 (stereo not drawn) | common ragweed (Ambrosia elatior) | 100 |

Report Plant response rating (0 to 100), Ragweed, Common for each item below.
1. CCOc1cccc(N2CCC(n3ccc(C(C)(C)C)n3)C2=O)c1 (stereo not drawn)
2. COc1cc(N2CCC(n3ccc(C(C)C)n3)C2=O)ccc1Br (stereo not drawn)
3. CCC(CC)c1ccn(C2CCN(c3cccc(OC)c3)C2=O)n1 (stereo not drawn)
4. CCC(C)c1ccn(C2CCN(c3ccc(Cl)c(OC)c3)C2=O)n1 (stereo not drawn)
5. CSc1cccc(N2CCC(n3ccc(C(C)(C)C)n3)C2=O)c1 (stereo not drawn)
6. COc1cc(N2CCC(n3ccc(C(C)C)n3)C2=O)ccc1C (stereo not drawn)
7. CC(C)Oc1cccc(N2CCC(n3ccc(C(C)(C)C)n3)C2=O)c1 (stereo not drawn)

1. 100
2. 100
3. 70
4. 100
5. 0
6. 100
7. 100

---

test system: johnsongrass (Sorghum halepense); experiment: Test C preemergence; format: in vivo; conditions: preemergence, Rate 62 g/ha, scale 0 to 100
From the text: […]
Exercise: state measured Plant response rating, Johnsongrass for each of the molecules provided.
One number for each entry.

Illustrative cases are given below, each with its answer.
| molecule | Plant response rating, Johnsongrass |
| --- | --- |
| CCC(C)c1ccn(C2CCN(c3ccc(F)c(C(F)(F)F)c3)C2=O)n1 (centres unmarked) | 0 |
| CCOc1cccc(N2CCC(n3ccc(C(C)C)n3)C2=O)c1 (centres unmarked) | 60 |
| CCC(CC)c1ccn(C2CCN(c3ccc(Cl)c(OC)c3)C2=O)n1 (centres unmarked) | 0 |
| CCCC(C)c1ccn(C2CCN(c3ccc(Cl)c(OC)c3)C2=O)n1 (centres unmarked) | 60 |

We now examine a further molecule.
Param item = CCC(CC)c1ccn(C2CCN(c3cccc(OC)c3)C2=O)n1 (centres unmarked) ; retrieve measured Plant response rating, Johnsongrass.
20

---

system: velvetleaf (Abutilon theophrasti); assay: Test C preemergence; assay type: in vivo; conditions: preemergence, Rate 62 g/ha, scale 0 to 100
From the text: […]
Would you kindly list Plant response rating, Velvetleaf for each of these compounds?
Answers are plain numbers.

Look over these answered cases.
| compound | value measured |
| --- | --- |
| CCC(C)c1ccn(C2CCN(c3ccc(Br)c(OC)c3)C2=O)n1 (centres unmarked) | 10 |
| CCCC(C)c1ccn(C2SCN(c3cccc(C(F)(F)F)c3)C2=O)n1 (centres unmarked) | 0 |

// input: 3 compounds below; output: Plant response rating, Velvetleaf for each
1. CC(C)(C)c1ccn(C2CCN(c3cccc([S+]([O-])C(F)(F)F)c3)C2=O)n1 (centres unmarked)
2. CCC(C)Oc1cccc(N2CCC(n3ccc(C(C)(C)C)n3)C2=O)c1 (centres unmarked)
3. CCC(C)c1ccn(C2CCN(c3ccc(Cl)c(OC)c3)C2=O)n1 (centres unmarked)

20
0
60

Field: Plant response rating, Velvetleaf. Fill in for each record below.
1. CCC(CC)c1ccn(C2OCN(c3cccc(OC(F)F)c3)C2=O)n1 (centres unmarked)
2. COc1cc(N2CCC(n3ccc(C(C)C)n3)C2=O)ccc1Br (centres unmarked)
3. Cc1ccc(N2CCC(n3ccc(C(C)(C)C)n3)C2=O)cc1I (centres unmarked)

[20, 60, 0]

---

Tested on: pigweed (Amaranthus retroflexus)
Experiment: Test B postemergence
Type: in vivo
Details: Rate 500 g/ha, scale 0 to 100, 0 is no effect, 100 is complete control, 13 to 15 days
Method: […] At the same time, plants selected from these crop and weed species and also blackgrass (Alopecurus myosuroides), wheat (Triticum aestivum) and wild oat (Avena fatua) were treated with postemergence applications of test chemicals formulated in the same manner. […] Treated plants and controls were maintained in a greenhouse for 13 to 15 days, after which time all species were compared to controls and visually evaluated. […]
Task for the reader: assign each of the following molecules its reported Plant response rating, Pigweed.

| molecule | tested target | Plant response rating, Pigweed |
| --- | --- | --- |
| O=C1C(n2ccc(C3CC3)n2)CCN1c1cccc(C(F)(F)F)c1 (stereo not shown) | pigweed (Amaranthus retroflexus) | 10 |
| O=C1C(n2ccc(C3CCC3)n2)SCN1c1cccc(C(F)(F)F)c1 (stereo not shown) | pigweed (Amaranthus retroflexus) | 90 |
| COc1ccn(C2CCN(c3cccc(C(F)(F)F)c3)C2=O)n1 (stereo not shown) | pigweed (Amaranthus retroflexus) | 0 |
| CCC(CC)c1ccn(C2CCN(c3ccc(C)c(OC)c3)C2=O)n1 (stereo not shown) | pigweed (Amaranthus retroflexus) | 90 |
| CC(C)Oc1cccc(N2CCC(n3ccc(C(C)(C)C)n3)C2=O)c1 (stereo not shown) | pigweed (Amaranthus retroflexus) | 0 |

# per-item lookup of Plant response rating, Pigweed; items listed below
1. CCC(C)c1ccn(C2SCN(c3cccc(OC(F)(F)F)c3)C2=O)n1 (stereo not shown)
2. O=C1C(n2ccc(C3CCC3)n2)SCN1c1cccc(OC(F)F)c1 (stereo not shown)
3. O=C1C(n2cc(Cl)c(C3CC3)n2)CCN1c1cccc(C(F)(F)F)c1 (stereo not shown)

1: 60; 2: 0; 3: 0

Provide Plant response rating, Pigweed values for the following items, in order.
1. CCC(CC)c1ccn(C2CCN(c3cccc(OC(C)C)c3)C2=O)n1 (stereo not shown)
2. Cc1ccc(N2CCC(n3ccc(C(C)(C)C)n3)C2=O)cc1C(F)(F)F (stereo not shown)
3. CC(C)c1ccn(C2SCN(c3cccc(OC(F)F)c3)C2=O)n1 (stereo not shown)
4. Cc1c(F)cc(N2CCC(n3ccc(C(C)(C)C)n3)C2=O)cc1Br (stereo not shown)
5. CC(C)(C)c1ccn(C2CCN(c3cccc(Br)c3)C2=O)n1 (stereo not shown)
6. CC(C)(C)c1ccn(C2CCN(c3cccc(I)c3)C2=O)n1 (stereo not shown)

[70, 50, 0, 80, 80, 100]

Report Plant response rating, Pigweed for every entry below.
1. COc1cc(N2CCC(n3ccc(C(C)(C)C)n3)C2=O)ccc1C (stereo not shown)
2. CC(C)(C)c1ccn(C2CCN(c3cccc(S(C)(=O)=O)c3)C2=O)n1 (stereo not shown)

1. 100
2. 0

Just for reference, patent US7138361B2 is where these values come from.
